Biological target: T1, His-tagged CEACAM1 (human, UniProt P13688 35-428)
T1 construct: 45 kDa SPR analyte; also called CEACAM1-HIS; CEACAM1 analyte
T1 sequence: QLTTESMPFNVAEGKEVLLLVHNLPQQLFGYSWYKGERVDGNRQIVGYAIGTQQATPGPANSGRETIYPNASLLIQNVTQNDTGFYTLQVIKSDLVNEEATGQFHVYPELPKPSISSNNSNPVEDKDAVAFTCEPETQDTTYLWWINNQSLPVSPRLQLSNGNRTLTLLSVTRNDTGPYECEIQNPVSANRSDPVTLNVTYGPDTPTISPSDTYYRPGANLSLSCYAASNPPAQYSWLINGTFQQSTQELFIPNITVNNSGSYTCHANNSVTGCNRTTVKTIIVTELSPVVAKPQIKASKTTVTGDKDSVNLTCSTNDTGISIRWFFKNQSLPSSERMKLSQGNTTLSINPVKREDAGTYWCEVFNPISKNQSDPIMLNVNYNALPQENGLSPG
Test: SPR single-cycle, supernatant IgG captured
readout-label: relative KD to parent

| binder | readout-label | reported |
| --- | --- | --- |
| CP09C02/CP08F05 (antibody, IgG4, V domains shown, IgG4 (S241P), kappa) VH: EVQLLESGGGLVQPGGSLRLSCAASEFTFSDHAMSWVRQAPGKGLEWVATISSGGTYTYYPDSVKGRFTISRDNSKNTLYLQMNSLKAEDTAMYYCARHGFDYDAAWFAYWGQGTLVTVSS VL: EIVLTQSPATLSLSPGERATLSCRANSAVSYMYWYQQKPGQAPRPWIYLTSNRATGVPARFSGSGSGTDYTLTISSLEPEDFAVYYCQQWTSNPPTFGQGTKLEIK | relative KD to parent | 5.5 |
| VH1/CP08F05 (antibody, IgG4, V domains shown, IgG4 (S241P), kappa; also called Parent VH/CP08F05) VH: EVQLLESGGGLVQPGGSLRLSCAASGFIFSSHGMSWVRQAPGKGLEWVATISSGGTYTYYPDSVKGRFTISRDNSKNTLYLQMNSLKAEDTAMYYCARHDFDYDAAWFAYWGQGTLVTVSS VL: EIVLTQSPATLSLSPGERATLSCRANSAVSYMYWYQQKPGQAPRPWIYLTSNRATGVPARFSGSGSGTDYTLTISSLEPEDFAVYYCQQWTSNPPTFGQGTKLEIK | relative KD to parent | 2 |
| CP08H03/CP08F05 (antibody, V domains shown, IgG4 (S241P), kappa) VH: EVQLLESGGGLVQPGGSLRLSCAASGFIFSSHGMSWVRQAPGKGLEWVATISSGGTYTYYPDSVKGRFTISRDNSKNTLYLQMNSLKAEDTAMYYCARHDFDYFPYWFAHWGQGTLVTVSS VL: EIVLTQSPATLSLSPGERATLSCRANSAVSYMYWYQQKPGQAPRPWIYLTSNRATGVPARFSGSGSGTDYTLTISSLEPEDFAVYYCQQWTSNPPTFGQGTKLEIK | relative KD to parent | 5.2 |

Measured values drawn from patent US20250074980A1 for this set.
